Consider the following compounds and their measured remaining at 1 h readings.
- measurement_protocol: Metabolic stability in mouse J774.1 cells at 37 degC after 1 hr by HPLC analysis
- Type: ADME, cell-based
- measurement_parameters: read-out: Stability
Quick reminder: number only, in %, skip the unit.

Answered cases to consult:
> print(dat)
                                   compound      measure.name  readout.value
1  O=C(OCCOC(=O)[C@@H]1CCCCN1S(=O)(=O)Cc1ccccc1)c1cccnc1  remaining at 1 h             82
2  C[C@@H](CNC(=O)c1cccnc1)OC(=O)[C@@H]1CCCCN1S(=O)(=O)Cc1ccccc1  remaining at 1 h             95
3  O=C(OCCOc1cccnc1)[C@@H]1CCCCN1S(=O)(=O)Cc1ccccc1  remaining at 1 h             88
4  COCCOc1cc(OCCOC)cc(C(=O)OCCOC(=O)[C@@H]2CCCCN2S(=O)(=O)Cc2ccccc2)c1  remaining at 1 h             98
5  O=C(NCCOC(=O)[C@@H]1CCCCN1S(=O)(=O)Cc1ccccc1)c1cccnc1  remaining at 1 h             82

# next compound below
Challenge: Suppose we examine the compound O=C(OCCO)C1CCCCN1S(=O)(=O)Cc1ccccc1 (racemic) ; what remaining at 1 h value has been reported?
Response given: 95
